Please respond with reported inhibition at 25 µM for every item in the list.
Biological target: M2(S31) (Influenza A virus, UniProt P0DOF5)
Construct: expressed in transfected cells; host or cells: CHO cell membranes
Sequence (P0DOF5 whole entry): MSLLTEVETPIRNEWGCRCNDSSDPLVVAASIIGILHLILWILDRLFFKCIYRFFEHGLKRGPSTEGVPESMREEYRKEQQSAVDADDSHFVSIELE
Assay: Cell-free electrophysiology of M2 proton channels on solid supported membranes (IonGate SURFE2R)
Format: biochemical
Conditions: 25 μM compound, activation by pH jump 7.0 to 6.0, read-out: IonGate_M2(S31)_Screen % Inhibition at 25 μM

Req: Give M2(S31) (Influenza A virus, UniProt P0DOF5) inhibition at 25 µM for COC12CC3CC(CC(N)(C3)C1)C2 [Cpd 32]
Resp: 1 to 10%

Req: What do you have for NC12CC3CC(C1)C(F)(F)C(C3)C2 [Cpd 17, 4,4-Difluoro-adamantan-1-ylamine] ?
Resp: 11 to 50%

Req: Same for Nc1ccn(C23CC4CC(CC(C4)C2)C3)n1 [Cpd 4]
Resp: 11 to 50%

Req: Same question, NC12CC3CC(C1)C(O)C(C3)C2 (stereo not shown) [Cpd 14] this time
Resp: 11 to 50%

Req: Also NC12CC3CC(C1)C(CF)C(C3)C2 (stereo not shown) [Cpd 21, 4-Fluoromethyl-adamantan-1-ylamine] , if possible.
Resp: 51 to 95%

Req: Would you kindly repeat that for O=[N+]([O-])CC12CC3CC(C1)C(F)C(C3)C2 (stereo not shown) [Cpd 28, 4-Fluoro-1-nitromethyl-adamantane] ?
Resp: 11 to 50%

Req: And then NC12CC3CC(CC(C3)C1O)C2 (stereo not shown) [Cpd 34] , what is it?
Resp: 51 to 95%

Req: Param item: c1ncn(C23CC4CC(CC(C4)C2)C3)n1 [Cpd 1]
Resp: 11 to 50%

Req: Likewise for O=[N+]([O-])C12CC3CC(CC(F)(C3)C1)C2 [Cpd 30, 3-Fluoro-1-nitro-adamantane] ?
Resp: 1 to 10%

Req: What do you get for NC12CC3CC(C1)C(S)C(C3)C2 (stereo not shown) [Cpd 20, 5-Amino-adamantane-2-thiol] ?
Resp: 11 to 50%

Req: Now the molecule C1CNC(C23CC4CC(CC(C4)C2)C3)=N1 [Cpd 6]
Resp: 51 to 95%

Req: Next record, please: CC1(F)C2CC3CC1CC(N)(C3)C2 (stereo not shown) [Cpd 18, 4-Fluoro-4-methyl-adamantan-1-ylamine]
Resp: 51 to 95%

Req: Next molecule up: CC1(O)C2CC3CC1CC(CN)(C3)C2 (stereo not shown) [Cpd 11, 5-Aminomethyl-2-methyl-adamantan-2-ol]
Resp: 11 to 50%

Req: Please give the result for N=C(N)NC12CC3CC(CC(F)(C3)C1)C2 [Cpd 31, N-(3-Fluoro-adamantan-1-yl)-guanidine] too.
Resp: 11 to 50%

Req: Again, but for COC1C2CC3CC1CC(CN)(C3)C2 (stereo not shown) [Cpd 25, C-(4-Methoxy-adamantan-1-yl)-methylamine]
Resp: 51 to 95%

Req: Now this one: CC1(O)C2CC3CC(C2)CC1(N)C3 (stereo not shown) [Cpd 35, 1-Amino-2-methyl-adamantan-2-ol]
Resp: 11 to 50%

Req: Next: NC12CC3CC(C1)C(F)C(C3)C2 (stereo not shown) [Cpd 13, 4-Fluoroadamantan-1-amine]
Resp: 51 to 95%

Req: Next: NCC12CC3CC(C1)C(O)C(C3)C2 (stereo not shown) [Cpd 7]
Resp: 11 to 50%

Req: Another molecule to check: NC12CC3CC(C1)CC(F)(C3)C2 [Cpd 12]
Resp: 51 to 95%
